test: protein stability index of a GFP-peptide fusion (GPS, HEK-293T) (PSI 1-6); higher = more stable; details: treatment: MLN4924 1 uM, 8 h; c terminus: a fixed tail appended;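 note: 24-mer peptide tiles fused after GFP, lentivirally expressed, FACS-sorted into six equal bins by GFP/DsRed ratio, decoded by Illumina sequencing, PSI is the read-weighted mean bin number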
Observed property: protein stability index
Please give the numeric answer without any surrounding text.

IN: Identify protein stability index associated with the sequence VTEHPLELIRVEVEILDLNDNSPS [PCDHGC5]
OUT: 3

IN: Identify protein stability index associated with the sequence ILSGARVNAKDNMWLTPLHRAVAS [ANKRD44]
OUT: 2.4

IN: Identify protein stability index associated with the sequence PVYRRDCHEEVYAGSHQYPGRGVY [ACBD3]
OUT: 3.03

IN: Identify protein stability index associated with the sequence GAHKDCQVAPLTHVFQRQKSELSD [TRIM55]
OUT: 4.83

IN: Identify protein stability index associated with the sequence LRLSCMERKKVQIRSMDPSALASD [DCAF4]
OUT: 3.48

IN: Identify protein stability index associated with the sequence TKAGHSLELIEPLIKFQVGLKKLN [VDR]
OUT: 2.42

IN: Identify protein stability index associated with the sequence NLQELLELDSSSSLCVLVSTVGKL [CEP70]
OUT: 2.43

IN: Identify protein stability index associated with the sequence TGRHYWEVDVQEAGAGWWVGAAYA [TRIM14]
OUT: 2.58

IN: Identify protein stability index associated with the sequence FTFPGMSLDKRQGEGLRIYWGSPE [TPRG1]
OUT: 2.38

IN: Identify protein stability index associated with the sequence QQENKVLKIELETYKLKCKALQEE [CCDC6]
OUT: 4.27

IN: Identify protein stability index associated with the sequence ADAVNLTIPASLDLSPLLGFWQLP [PLAGL1]
OUT: 2.28

IN: Identify protein stability index associated with the sequence IDNANRILGPAYFVTYVFFVFFVL [PKD2L1]
OUT: 2.67

IN: Identify protein stability index associated with the sequence ILVVTVQLILFGLSNQLAVTFREE [MCOLN1]
OUT: 3.05

IN: Identify protein stability index associated with the sequence AQKISKGADPKSVVCAFFKQGQCT [ZC3H15]
OUT: 3.31

IN: Identify protein stability index associated with the sequence KVALEPQLWELGKVLRKAGLSAGY [LPCAT4]
OUT: 2.21

IN: Identify protein stability index associated with the sequence ACGLGGGYGGGFSSSSSFGSGFGG [KRT16]
OUT: 2.29

IN: Identify protein stability index associated with the sequence LVSIRNNRNLQKFSLFGDISVLQQ [FBXO33]
OUT: 2.09

IN: Identify protein stability index associated with the sequence RFRSCNTEDCPTGSALTFREEQCA [ADAMTS4]
OUT: 4.24

IN: Identify protein stability index associated with the sequence LELLGATYVDKKRDLLGALKHWRR [FEM1A]
OUT: 2.62

IN: Identify protein stability index associated with the sequence LSWFILHARYRVIHFIAVAVCLLG [SLC35F2]
OUT: 2.83

IN: Identify protein stability index associated with the sequence QKQLEQTLQQFNIKLRPPGAEKPS [ARFIP2]
OUT: 4.07

IN: Identify protein stability index associated with the sequence EKKDLKLEPPEEEIIEGNTKSHIM [NECAB1]
OUT: 5.43

IN: Identify protein stability index associated with the sequence LVMASLYHIYVALEEEIERNKESP [HMOX1]
OUT: 2.22

IN: Identify protein stability index associated with the sequence ERYDPNIDQWSMLGDMQTAREGAG [KLHL12]
OUT: 4.33

IN: Identify protein stability index associated with the sequence IGSVEEQLAQLRCEMEQQSQEYQI [KRT16]
OUT: 4.85

IN: Identify protein stability index associated with the sequence VLKYFSHYMEENLMDGGDLPSVTD [PLK2]
OUT: 2.67

IN: Identify protein stability index associated with the sequence IAGGLAGMGGIQNEKETMQSLNDR [KRT18]
OUT: 4.81

IN: Identify protein stability index associated with the sequence DYPVQVAPLSNGLCCAFSTDGSVL [WSB1]
OUT: 2.96

IN: Identify protein stability index associated with the sequence AAAFSQCEEWSFFHAYYYCFITLT [KCNK9]
OUT: 3.23

IN: Identify protein stability index associated with the sequence QICTVKDIKAEPQPLSPASSSYSV [ATF6]
OUT: 3.98

IN: Identify protein stability index associated with the sequence MPTGPPEDRLSLKFLPSSEEDNDD [DRICH1]
OUT: 5.59

IN: Identify protein stability index associated with the sequence AYAHPQQKVAVYRALQAALAESGG [TRADD]
OUT: 2.65

IN: Identify protein stability index associated with the sequence GEKPYECQDCGRAFNQNSSLGRHK [ZNF8]
OUT: 3.69

IN: Identify protein stability index associated with the sequence PSLFHLNTLKRENSSPRVMQRKQS [DLC1]
OUT: 4.2

IN: Identify protein stability index associated with the sequence MAVAQQLRAESDFEQLPDDVAISA [NCF4]
OUT: 4.88

IN: Identify protein stability index associated with the sequence TEQAAEYVPEKVKKAEKKLEENPY [CSTF3]
OUT: 5.37

IN: Identify protein stability index associated with the sequence VLNVAGEAGGKQKAVEEELDAEDR [SLC6A17]
OUT: 5.69

IN: Identify protein stability index associated with the sequence ECQLYPRRSQQQQVPVVDFQAELR [SNURF]
OUT: 4.31

IN: Identify protein stability index associated with the sequence RRMCFVDPVRQCAECALVSLKEAE [ZFYVE21]
OUT: 3.01

IN: Identify protein stability index associated with the sequence GGGGGGLPISTVREVALLRRLEAF [CDK4]
OUT: 3.23

IN: Identify protein stability index associated with the sequence SFSTAIGRTCITDLQLTVGGAQAS [MFSD9]
OUT: 2.34

IN: Identify protein stability index associated with the sequence LELDDNLDTERPVQKRARSGPQPR [TRIB3]
OUT: 5.11

IN: Identify protein stability index associated with the sequence HALRKKQLKRQKRDYIHSLKLLNV [FAM9B]
OUT: 2.84
